Target: Muscarinic acetylcholine receptor M2 (Homo sapiens)
Sequence (P08172 whole entry): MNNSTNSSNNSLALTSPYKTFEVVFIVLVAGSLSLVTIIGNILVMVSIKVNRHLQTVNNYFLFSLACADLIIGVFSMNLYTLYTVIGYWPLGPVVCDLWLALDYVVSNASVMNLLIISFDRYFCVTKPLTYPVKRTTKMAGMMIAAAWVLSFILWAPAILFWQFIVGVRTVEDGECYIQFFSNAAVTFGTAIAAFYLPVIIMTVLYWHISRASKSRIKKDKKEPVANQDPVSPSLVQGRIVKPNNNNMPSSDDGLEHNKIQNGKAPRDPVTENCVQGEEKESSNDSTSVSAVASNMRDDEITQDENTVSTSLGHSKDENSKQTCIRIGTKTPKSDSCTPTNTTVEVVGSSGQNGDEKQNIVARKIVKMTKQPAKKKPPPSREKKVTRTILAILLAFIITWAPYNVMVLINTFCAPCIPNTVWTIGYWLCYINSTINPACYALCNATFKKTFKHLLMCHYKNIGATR
// boundary case: Ki equal to 30 µM maps to 0; strictly smaller maps to 1

Solved entries (count: 3):
- CN1CCCC1c1ccco1 (racemic): 0
- Cc1ccc([C@@H]2CCCN2C)o1: 1
- Cc1ccc([C@H]2CCCN2C)o1: 1

In the following, a different molecule is considered.
Is the reported Ki for C[N+]1(C)CCC[C@@H]1c1ccco1.[I-] strictly below 30 µM?
1

----------
Some compounds, each annotated with its measured Ki.
Target: Muscarinic acetylcholine receptor M1 (Homo sapiens, UniProt P11229)
Sequence (P11229 whole entry): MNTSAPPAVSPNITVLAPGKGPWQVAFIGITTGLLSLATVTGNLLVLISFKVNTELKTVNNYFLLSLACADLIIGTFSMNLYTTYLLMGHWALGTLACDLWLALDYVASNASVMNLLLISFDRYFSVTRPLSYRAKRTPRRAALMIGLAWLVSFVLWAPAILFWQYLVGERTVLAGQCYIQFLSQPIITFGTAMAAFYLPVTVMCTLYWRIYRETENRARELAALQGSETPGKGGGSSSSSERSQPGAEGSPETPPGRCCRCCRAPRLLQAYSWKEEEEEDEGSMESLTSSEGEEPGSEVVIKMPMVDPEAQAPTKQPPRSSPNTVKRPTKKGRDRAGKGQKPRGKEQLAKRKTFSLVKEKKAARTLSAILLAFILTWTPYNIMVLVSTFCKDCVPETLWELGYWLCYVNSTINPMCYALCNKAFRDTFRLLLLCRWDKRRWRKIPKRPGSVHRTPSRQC
Return type: number; implicit unit µM.

Fill blank: measured Ki of the compound Cc1ccc([C@@H]2CCCN2)o1 is ____.
155

Another compound to check: CN1CCCC1c1ccco1 (racemic)
33.1

Another compound: C[N+](C)(C)CC#CCOC(=O)Nc1cccc(Cl)c1
1.95

What about Cc1ccc(C2CCC[N+]2(C)C)o1.[I-] (racemic) ?
7.41

And what about the compound CN1CCC[C@H]1c1ccco1 ?
43.7

----------
# collection of pKi values tested on Muscarinic acetylcholine receptor M1 (Homo sapiens, UniProt P11229)
Just so you know, pKi here is -log10 of the concentration in molar units; reply with that number alone.

Item: Cc1ccc([C@H]2CCCN2C)o1 Test system: Muscarinic acetylcholine receptor M1 (Homo sapiens, UniProt P11229) Read-out: pKi Value: ?
4.35

----------
Molecular target: Muscarinic acetylcholine receptor M3 (Homo sapiens)
Sequence (P20309 whole entry): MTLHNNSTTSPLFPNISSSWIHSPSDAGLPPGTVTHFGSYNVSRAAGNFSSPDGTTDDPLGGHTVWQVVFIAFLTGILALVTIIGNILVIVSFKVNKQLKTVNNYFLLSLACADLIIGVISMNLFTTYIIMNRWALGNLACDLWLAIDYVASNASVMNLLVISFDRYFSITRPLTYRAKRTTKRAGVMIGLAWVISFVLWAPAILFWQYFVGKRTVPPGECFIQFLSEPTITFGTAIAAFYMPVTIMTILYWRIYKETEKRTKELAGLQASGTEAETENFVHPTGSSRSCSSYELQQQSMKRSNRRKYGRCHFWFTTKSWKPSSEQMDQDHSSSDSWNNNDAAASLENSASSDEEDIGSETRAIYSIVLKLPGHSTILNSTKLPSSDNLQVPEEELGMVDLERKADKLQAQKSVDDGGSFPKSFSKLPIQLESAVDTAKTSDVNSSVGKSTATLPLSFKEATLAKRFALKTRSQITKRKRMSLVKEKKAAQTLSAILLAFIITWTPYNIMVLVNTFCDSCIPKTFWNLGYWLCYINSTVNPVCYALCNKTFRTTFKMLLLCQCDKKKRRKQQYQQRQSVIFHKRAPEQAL
Note to self: Ki under 8 µM means t, ties and anything higher get f.

Record excerpt, results attached:
• Cc1ccc([C@H]2CCCN2C)o1 = f
• Cc1ccc([C@@H]2CCCN2)o1 = f
• Cc1ccc(C2CCC[N+]2(C)C)o1.[I-] (racemic) = t
• C[N+](C)(C)CC#CCOC(=O)Nc1cccc(Cl)c1 = t
• Cc1ccc(C2CCCN2)o1 (racemic) = f
• c1coc(C2CCCN2)c1 (racemic) = f

Quick check: Ki of Cc1ccc(C[N+](C)(C)C)o1 under 8 µM?
t

Now the same for C[N+]1(C)CCC[C@@H]1c1ccco1.[I-]
f

Proceed to Cc1ccc([C@H]2CCCN2)o1
f

Cool, now C[N+]1(C)CCC[C@H]1c1ccco1.[I-]
f

// same read-out, input: Cc1ccc(C2CCCN2C)o1 (racemic)
f

----------
Overview of reported Intrinsic activity across a group of compounds:
Organism: Oryctolagus cuniculus
Assay: Intrinsic activity at muscarinic M1/M4 receptor in New Zealanda white rabbit vas deferens assessed as effect on isometric tissue contraction relative to control
Assay type: tissue-based
Reply briefly: the number, and no unit.

A selection of reference data follows.
* C[N+]1(C)CCC[C@H]1c1ccco1.[I-] | 0.21
* C#CCOC(=O)C1=CCCN(C)C1 | 1
* Cc1ccc([C@H]2CCCN2)o1 | 1

Which Intrinsic activity is reported for this compound? CN1CCCC1c1ccco1 (racemic)
0.22

Now consider CN1CCC[C@@H]1c1ccco1 .
0.47

Consider next the compound C[N+](C)(C)CC#CCOC(=O)Nc1cccc(Cl)c1 in the same way.
1

And for C[N+]1(C)CCC[C@@H]1c1ccco1.[I-] ?
0.28

// same read-out, input: C[N+]1(C)CCCC1c1ccco1.[I-] (racemic)
0.26

Could you do the same for CN1CCC[C@H]1c1ccco1 , please?
0.3

----------
These records show pKi for Muscarinic acetylcholine receptor M5 (Homo sapiens, UniProt P08912).
Would you please state pKi, meaning minus log10 of the concentration in mol/L, as a bare number?

- Cc1ccc([C@H]2CCCN2C)o1: 4.50
- c1coc(C2CCCN2)c1 (racemic): 4.78

Could you tell me which pKi is on file for Cc1ccc([C@@H]2CCCN2C)o1 ?
4.40

Proceed to Cc1ccc([C@H]2CCC[N+]2(C)C)o1.[I-]
5.02

Then this compound: c1coc([C@H]2CCCN2)c1
4.50

Can you check CN1CCC[C@H]1c1ccco1 next?
4.20

Another: Cc1ccc(C2CCCN2)o1 (racemic)
4.72

----------
Species: Cavia porcellus
Test: Intrinsic activity at muscarinic M2 receptor in guinea pig atrium assessed as effect on inotropic activity relative to control
Format: tissue-based
Conditions: Cardiac atrium
Threshold-based label: Intrinsic activity under 0.4 gives Satisfied, Intrinsic activity not under 0.4 gives Not satisfied.

Answered examples (5):
* C[N+](C)(C)CCOC(N)=O.[Cl-] | Not satisfied
* C[N+]1(C)CCCC1c1ccco1.[I-] (racemic) | Satisfied
* CN1CCC[C@@H]1c1ccco1 | Not satisfied
* Cc1ccc(C2CCC[N+]2(C)C)o1.[I-] (racemic) | Satisfied
* Cc1ccc([C@@H]2CCC[N+]2(C)C)o1.[I-] | Not satisfied

# strict comparison: is reported Intrinsic activity < 0.4? input = C#CCOC(=O)C1=CCCN(C)C1
Not satisfied

Now give it for Cc1ccc([C@H]2CCC[N+]2(C)C)o1.[I-] too.
Not satisfied

----------
Assay: Agonist activity at muscarinic M1/M4 receptor in guinea pig lung assessed as effect on tissue contraction
Type: functional, Cavia porcellus
pD2 values, listed per item

• CN1CCCC1c1ccco1 (racemic) = 6.87
• CN1CCC[C@H]1c1ccco1 = 6.72
• Cc1ccc([C@H]2CCCN2)o1 = 5.45

// below: pD2 requested for another molecule
Data request, read-out pD2, for C#CCOC(=O)C1=CCCN(C)C1 [ARECAIDINE PROPARGYL ESTER]
5.56

----------
Species on record: Cavia porcellus
Assay: Intrinsic activity at muscarinic M2 receptor in guinea pig atrium assessed as effect on inotropic activity relative to control
Assay type: tissue-based
Details: Cardiac atrium
Measured Intrinsic activity by item
Write no unit; give the number alone.

- Cc1ccc([C@@H]2CCCN2C)o1: 0.47
- Cc1ccc(C2CCCN2C)o1 (racemic): 0.37
- CN1CCC[C@H]1c1ccco1: 0.65

Any idea what Intrinsic activity was measured for Cc1ccc(C2CCCN2)o1 (racemic) ?
1

----------
Species: Cavia porcellus
Test: Intrinsic activity at muscarinic M1/M4 receptor in guinea pig lung assessed as effect on tissue contraction relative to control
metric: Intrinsic activity
Form field (numeric): enter value without unit.

Here are 3 compounds together with their reported answers.
* C[N+](C)(C)CCOC(N)=O.[Cl-] | 1
* C#CCOC(=O)C1=CCCN(C)C1 | 1
* CN1CCC[C@H]1c1ccco1 | 0.33

# get_value(readout='Intrinsic activity', item= Cc1ccc([C@H]2CCCN2)o1 )
0.32

Repeat for the following compound: CN1CCCC1c1ccco1 (racemic)
0.25

----------
In this section we review reported Ki values for a set of compounds.
Molecular target: Muscarinic acetylcholine receptor M4 (Homo sapiens)
Sequence (P08173 whole entry): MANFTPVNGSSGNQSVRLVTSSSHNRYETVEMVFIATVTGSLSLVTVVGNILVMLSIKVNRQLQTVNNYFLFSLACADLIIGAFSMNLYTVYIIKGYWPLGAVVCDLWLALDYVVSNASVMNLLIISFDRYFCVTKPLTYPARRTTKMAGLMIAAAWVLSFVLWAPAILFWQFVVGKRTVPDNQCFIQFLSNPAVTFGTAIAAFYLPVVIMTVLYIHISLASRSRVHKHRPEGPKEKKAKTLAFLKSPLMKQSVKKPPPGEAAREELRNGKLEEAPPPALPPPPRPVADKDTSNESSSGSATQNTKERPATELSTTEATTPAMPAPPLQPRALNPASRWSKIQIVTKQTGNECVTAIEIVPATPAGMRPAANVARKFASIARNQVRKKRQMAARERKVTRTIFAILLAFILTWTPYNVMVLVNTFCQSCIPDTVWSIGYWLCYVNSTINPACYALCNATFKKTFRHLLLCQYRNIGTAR
Report as a plain number; the unit µM is understood.

* Cc1ccc([C@H]2CCCN2C)o1 | 58.9
* CN1CCC[C@H]1c1ccco1 | 56.2
* Cc1ccc([C@@H]2CCCN2)o1 | 209
* Cc1ccc([C@H]2CCCN2)o1 | 29.5
* Cc1ccc(C[N+](C)(C)C)o1 | 6.31
* Cc1ccc([C@@H]2CCC[N+]2(C)C)o1.[I-] | 5.13
* C[N+]1(C)CCC[C@@H]1c1ccco1.[I-] | 28.2
* c1coc(C2CCCN2)c1 (racemic) | 87.1
* Cc1ccc(C2CCC[N+]2(C)C)o1.[I-] (racemic) | 4.37

Okay, now this compound:
Report Ki for CN1CCC[C@@H]1c1ccco1 please.
79.4

----------
Molecular target: Muscarinic acetylcholine receptor M1 (Homo sapiens, UniProt P11229)
Recorded Ki values for a group of compounds are listed next.
Please respond with the number in µM and leave the unit unwritten.

Consider the reported Ki for these compounds:
- Cc1ccc(C2CCCN2C)o1 (racemic): 26.9
- C[N+]1(C)CCCC1c1ccco1.[I-] (racemic): 5.25
- Cc1ccc([C@@H]2CCC[N+]2(C)C)o1.[I-]: 5.62
- Cc1ccc(C[N+](C)(C)C)o1: 7.94
- Cc1ccc(C2CCCN2)o1 (racemic): 38
- C[N+]1(C)CCC[C@@H]1c1ccco1.[I-]: 51.3

Value lookup for Ki; key = Cc1ccc([C@@H]2CCCN2C)o1
36.3

# iterate: C[N+]1(C)CCC[C@H]1c1ccco1.[I-]
30.9
